Target: D(3) dopamine receptor (Homo sapiens) (UniProt P35462)
Sequence (P35462 whole entry, looked up): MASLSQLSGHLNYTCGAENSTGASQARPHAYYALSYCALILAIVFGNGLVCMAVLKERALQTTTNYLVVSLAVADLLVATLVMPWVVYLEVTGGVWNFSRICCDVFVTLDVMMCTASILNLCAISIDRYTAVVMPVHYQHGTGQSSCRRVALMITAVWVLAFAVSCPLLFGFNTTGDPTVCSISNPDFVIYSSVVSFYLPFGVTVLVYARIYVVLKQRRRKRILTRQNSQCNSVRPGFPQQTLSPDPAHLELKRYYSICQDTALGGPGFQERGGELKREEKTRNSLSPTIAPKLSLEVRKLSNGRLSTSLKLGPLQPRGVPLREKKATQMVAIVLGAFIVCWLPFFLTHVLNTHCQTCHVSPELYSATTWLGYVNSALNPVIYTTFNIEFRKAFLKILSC
Test: qHTS of D3 Dopamine Receptor Antagonist: qHTS; further: on the % scale 0 is the no-effect control and ±100 the full control effect
Conditions: D3R cells, DiscoveRx beta-arrestin luminescence, antagonist mode; active compounds read low
Protocol: D3 DARs represent a very important target for the treatment of several neuropsychiatric disorders. Indeed, one of the most promising therapeutic applications for the D3 DAR is in the area of addiction and related disorders. […] Freshly passaged cells are plated in 1536 well white, solid bottom plates at a density of 1500 cells/well in 3microl of complete media. […] Following incubation, luminescence is measured on a ViewLux CCD-based luminometer reader using a 20 sec exposure time.
Hit rate of the full screen: of about 360,000 compounds, about 9,100 (2.5%) were called active. Inconclusive results (about 4%) are left out. The sample as a whole holds a higher share of actives than the screen did.
measured.metric: max response, negative = inhibition (%)
Give the value, in units of %, as a plain number.

// worked examples, max response, negative = inhibition included
molecule | max response, negative = inhibition (%)
C=CCn1nc(C(=O)OCC)cc1-c1sc(NC(=O)c2ccccc2)nc1C | 26.8
O[C@@H]1C[C@H](c2ccccc2)N(Cc2cccs2)C[C@H]1n1cc(C2CC2)nn1 | 2.45
CCOc1ccc(CCN2C(=S)N([C@@H](CC(C)C)CN3CCC[C@@H]3CN3C(=S)NC[C@@H]3Cc3ccc(O)cc3)C[C@@H]2CC(C)C)cc1 | 21.8
Cc1ccccc1OS(=O)(=O)c1cccc([N+](=O)[O-])c1 | -14.2
CCN(CC)CCN(C(=O)c1cc(Cl)sc1Cl)c1nc2cc3c(cc2s1)OCO3 | -11.6

Problem: Please indicate recorded max response, negative = inhibition of O=C(NCc1ccccc1)C1c2ccccc2OCC(=O)N1C1CC1 (centres undefined) measured with D(3) dopamine receptor (Homo sapiens) (UniProt P35462).
Result: 3.07

Problem: Please indicate recorded max response, negative = inhibition of C[C@H]1CN([C@@H](C)CO)C(=O)CCCn2nncc2CO[C@@H]1CN(C)Cc1ccc(Oc2ccccc2)cc1 measured with D(3) dopamine receptor (Homo sapiens) (UniProt P35462).
Result: -10.5

Problem: Please indicate recorded max response, negative = inhibition of Cc1nc(C(F)(F)F)ccc1C(=O)N1CCC1(C)C(=O)NS(=O)(=O)c1ccccc1 (centres undefined) measured with D(3) dopamine receptor (Homo sapiens) (UniProt P35462).
Result: 25.3

Problem: Please indicate recorded max response, negative = inhibition of CC(=NNC(N)=O)C1CC2CCC1CC2 (centres undefined) measured with D(3) dopamine receptor (Homo sapiens) (UniProt P35462).
Result: 16.7
